The reported numbers originate from PubChem BioAssay (NCI).

Would you mind telling me the reported TGI of each entry?
System: SF-295 CNS
method: NCI tumour cell line growth inhibition, 48 h

*Q* Value wanted: TGI (SF-295 CNS) of entry COc1cc2cc(C(=O)CCC(=O)O)sc2cc1OC
*A* > 100 µM

*Q* Try this compound next: C/C=C/C1=C(Cl)C(=O)[C@@H](Cl)[C@@]1(O)C(=O)OC
*A* 27.9 µM

*Q* Try CCOC(=O)/C(=N\OC)C(O)C(F)(F)F (stereo unspecified) next.
*A* > 100 µM

*Q* Same thing, different compound: O=[N+]([O-])c1ccc(-c2nc3ccc([N+](=O)[O-])cc3[nH]2)cc1
*A* 66.1 µM

*Q* Consider next the compound N#Cc1n[nH]n(C2CCCCC2)c1=O in the same way.
*A* > 100 µM

*Q* Again, but for O=C1Cc2c([nH]c3c(Cl)cccc23)-c2ccccc2N1
*A* > 100 µM

*Q* For NC(=O)c1cccc(C2OC(COP(=O)(O)O)C(O)C2O)c1 (stereo unspecified) then?
*A* > 50 µM

*Q* Can you check COc1ccc(NC(=O)CC(=O)N2N=C(c3ccccc3)C(N=Nc3ccc(S(=O)(=O)CCOS(=O)(=O)O)cc3)C2=O)cc1 (stereo unspecified) next?
*A* > 100 µM

*Q* Subsequent entry: CC1OC(n2ccc(=O)[nH]c2=O)C=C(OC(=O)c2ccccc2)C1=O (stereo unspecified)
*A* > 100 µM

*Q* Param item: CCN(CC)CCCn1cnc2ncccc2c1=O
*A* > 100 µM

*Q* Consider next the compound COc1ccc2c(c1)CCN=C2Cc1cc(OC)c(OC)cc1CCCl in the same way.
*A* > 100 µM

*Q* Would you kindly repeat that for O=C1CCCC2C(O)CCC[C@H]12 (stereo partly specified) ?
*A* > 100 µM

*Q* Same again, this time with COC(=O)C1CCOC(C)N1C(=O)OC(C)(C)C (stereo unspecified)
*A* > 100 µM

*Q* Do the same for CN(C)c1nc2oc(-c3ccccc3)c(-c3ccccc3)c2c2nncn12 please
*A* > 100 µM

*Q* Quick one: COc1cc(C(=O)N2N=C(c3ccc(S(C)(=O)=O)cc3)CC2c2ccco2)cc(OC)c1OC (stereo unspecified)
*A* > 100 µM

*Q* Next compound: c1ccc2c(c1)Nc1ccccc1[P+]21c2ccccc2Nc2ccccc21
*A* 5.16 µM

*Q* Now the compound COC(=O)C1=C(C)NC(C)=C(C(=O)OC)C1/C=C(\Cl)c1ccc(Cl)c(Cl)c1
*A* 21.6 µM

*Q* Now the same for O=c1[nH]cnc2c1sc1nc3ccccc3n12
*A* > 100 µM

*Q* Another compound: C#CCN(Cc1nc2cc(C(F)(F)F)ccc2nc1-c1ccccc1)c1ccc(OC(F)(F)F)cc1
*A* > 100 µM

*Q* Field entry: N#C/C(=N\Nc1ccc(Cl)cc1)C(=O)Nc1cc(-c2ccccc2)nn1-c1ccccc1
*A* > 100 µM

*Q* Please answer likewise for COC(c1cccc(C(O)(C(F)(F)F)C(F)(F)F)c1)(C(F)(F)F)C(F)(F)F
*A* 30.2 µM

*Q* What about COc1cc(-c2nc3sccn3c2-c2ccnc(NCCNS(=O)(=O)c3ccc(Cl)cc3)n2)ccc1F ?
*A* > 100 µM

*Q* How about this compound: CCN(CC)c1ccc(/C=C2/C[N+](C)(C)C/C(=C/c3ccc(N(CC)CC)cc3)C2=O)cc1
*A* > 90.6 µM

*Q* Now give it for CN(C)c1nc(N(C)C)nc(N(C)CN(C)c2ccc(Cl)cc2)n1 too.
*A* > 100 µM

*Q* Repeat for the following compound: Cc1nc2c(n1C)C(=O)c1nc(CBr)[nH]c(=O)c1C2=O
*A* 5.27 µM

*Q* Then OC1(c2ccc(Cl)cc2)c2c(ccc3c2OCO3)C2=NCCN21 (stereo unspecified) ?
*A* > 100 µM

*Q* And then O=C(C=Nc1ccccc1C(=O)[O-])c1cccs1.O=C(C=Nc1ccccc1C(=O)[O-])c1cccs1.[Co+2] , what is it?
*A* > 100 µM

*Q* What about CC(=O)N1c2ccccc2C2=CC3C4C(=O)N(c5ccccc5)C(=O)C4C21C1C(=O)N(c2ccccc2)C(=O)C31 (stereo unspecified) ?
*A* 39.1 µM

*Q* Param item: COC(=O)C1CCC(Nc2ccc(C)cc2C)=N1 (stereo unspecified)
*A* > 100 µM

*Q* # repeat for CN(Cc1ccc(Cl)cc1)c1ccc(CO)c(Cl)c1
*A* 16 µM

*Q* Then what about the compound COc1cc(OC)cc(OCc2ccc3nc(-c4ccccc4)c(Cl)nc3c2)c1 ?
*A* 67.8 µM

*Q* Consider next the compound O=c1ccc(N=Nc2ccc([N+](=O)[O-])cc2)ccc1O in the same way.
*A* > 100 µM

*Q* Same lookup for Fc1ccc(-c2nn3c(-c4ccc(F)c(Cl)c4)nnc3s2)cc1 , please.
*A* > 50 µM

*Q* Note, next up: CSc1cccc(-n2c3nc(=O)n(C)c(=O)c-3nc3ccccc32)c1
*A* 23.6 µM

*Q* What about this compound? O=S(=O)(N/N=C/c1ccc(Cl)c(Cl)c1)c1ccccc1
*A* > 100 µM

*Q* Same again, this time with COc1ccc(/C(Cl)=C(/c2ccc(O)cc2)c2ccc(OCCN(C)C)cc2)cc1
*A* 16.3 µM
